# Target under test: Inhibitor of nuclear factor kappa-B kinase subunit beta (Homo sapiens);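 note: reported as mean inhibition, from the GSK PKIS screening set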
# Sequence (whole entry): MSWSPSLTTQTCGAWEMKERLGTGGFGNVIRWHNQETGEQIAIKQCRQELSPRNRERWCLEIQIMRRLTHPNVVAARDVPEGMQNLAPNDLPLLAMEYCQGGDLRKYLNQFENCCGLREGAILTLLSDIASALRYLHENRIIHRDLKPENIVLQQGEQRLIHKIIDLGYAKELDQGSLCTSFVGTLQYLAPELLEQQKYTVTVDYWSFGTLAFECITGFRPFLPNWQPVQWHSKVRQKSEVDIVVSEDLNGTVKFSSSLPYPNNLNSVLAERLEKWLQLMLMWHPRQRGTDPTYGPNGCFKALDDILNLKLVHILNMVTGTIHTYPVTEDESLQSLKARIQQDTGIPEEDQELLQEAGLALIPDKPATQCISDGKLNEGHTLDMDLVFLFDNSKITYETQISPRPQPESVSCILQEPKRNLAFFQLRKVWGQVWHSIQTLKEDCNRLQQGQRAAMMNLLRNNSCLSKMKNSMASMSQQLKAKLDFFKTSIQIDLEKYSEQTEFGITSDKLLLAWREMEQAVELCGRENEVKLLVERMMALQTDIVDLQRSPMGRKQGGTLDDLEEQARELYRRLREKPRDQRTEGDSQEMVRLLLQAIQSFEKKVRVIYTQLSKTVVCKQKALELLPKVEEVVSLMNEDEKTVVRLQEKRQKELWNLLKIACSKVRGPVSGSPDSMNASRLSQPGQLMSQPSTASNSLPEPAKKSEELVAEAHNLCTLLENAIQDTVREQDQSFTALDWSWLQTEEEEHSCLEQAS
# Details: at 1 µM
Reported property: inhibition (%)
Only the number, expressed in %, is required.

inhibition measured on `CCCN1CCC(c2ccc(Nc3nc(Nc4cc(F)ccc4C(N)=O)c4cc[nH]c4n3)c(OC)c2)CC1` = 7.11

inhibition measured on `NS(=O)(=O)c1ccc(N/N=C2\C(=O)Nc3ccc4ncccc4c32)cc1` = 26

inhibition measured on `N#Cc1c(NC(=O)c2ccc(F)cc2)sc2c1CCCC2` = 4.15

inhibition measured on `CC(=O)Nc1cccc(C#Cc2cncnc2Nc2ccc(OCc3cccc(F)c3)c(Cl)c2)c1` = -1.07

inhibition measured on CC1=C(C(=O)Nc2cc(Cl)c3[nH]ncc3c2)C(c2ccc(C(F)(F)F)cc2)CC(=O)N1 (configuration not stated) = 5.73

inhibition measured on `CN1CCC(n2cnc(-c3ccc(F)cc3)c2-c2ccnc(Nc3ccccc3)n2)CC1` = 3.93

inhibition measured on `Fc1ccc(-c2nn3ccccc3c2-c2ccncc2)cc1` = 0.63

---

# Target under test: Casein kinase II subunit alpha (Homo sapiens) (UniProt P68400)
# Sequence (P68400 whole entry, looked up): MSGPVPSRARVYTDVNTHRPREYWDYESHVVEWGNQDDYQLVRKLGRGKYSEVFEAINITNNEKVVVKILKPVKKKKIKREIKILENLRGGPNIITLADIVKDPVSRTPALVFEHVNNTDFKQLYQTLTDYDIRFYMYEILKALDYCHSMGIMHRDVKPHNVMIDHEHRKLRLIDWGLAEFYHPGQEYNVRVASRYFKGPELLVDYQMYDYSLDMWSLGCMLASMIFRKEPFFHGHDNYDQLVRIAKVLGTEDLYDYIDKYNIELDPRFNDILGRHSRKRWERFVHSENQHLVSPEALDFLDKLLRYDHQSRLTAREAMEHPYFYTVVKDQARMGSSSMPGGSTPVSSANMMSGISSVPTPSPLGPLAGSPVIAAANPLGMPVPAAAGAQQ
# Details: at 0.1 µM
# Description: GSK_PKIS: CK2 mean inhibition at 0.1 uM [Nanosyn]
Reported property: inhibition (%)
Only the number, expressed in %, is required.

inhibition measured on `c1ccc(COc2ccc(Nc3ncnc4ccc(-c5ccco5)cc34)cc2)cc1` = 1.23

inhibition measured on `CCn1c(-c2nonc2N)nc2c(C#CC(C)(C)O)ncc(OC3CCNCC3)c21` = 5.58

inhibition measured on `CCN(CC)S(=O)(=O)c1ccc(OC)c(Nc2ncc(-c3ccccc3)o2)c1` = 2.99

inhibition measured on `CCCN(CCS(C)(=O)=O)Cc1ccc(-c2ccc3ncnc(Nc4ccc(OCc5cccc(F)c5)c(Cl)c4)c3c2)o1` = 4.77

inhibition measured on `Fc1ccc(-c2nn3ccccc3c2-c2ccncc2)cc1` = -0.45

inhibition measured on `CCn1c(-c2nonc2N)nc2ccccc21` = 0.89

inhibition measured on `COc1ccc(-c2nn3ncccc3c2-c2ccnc(Nc3ccc4c(c3)OCCO4)n2)cc1` = 7.89
